Where these numbers come from: patent US5516777A

target_of_assay: rat prostate androgen receptor (Rattus norvegicus, UniProt P15207)
Sequence (P15207 whole entry S389L): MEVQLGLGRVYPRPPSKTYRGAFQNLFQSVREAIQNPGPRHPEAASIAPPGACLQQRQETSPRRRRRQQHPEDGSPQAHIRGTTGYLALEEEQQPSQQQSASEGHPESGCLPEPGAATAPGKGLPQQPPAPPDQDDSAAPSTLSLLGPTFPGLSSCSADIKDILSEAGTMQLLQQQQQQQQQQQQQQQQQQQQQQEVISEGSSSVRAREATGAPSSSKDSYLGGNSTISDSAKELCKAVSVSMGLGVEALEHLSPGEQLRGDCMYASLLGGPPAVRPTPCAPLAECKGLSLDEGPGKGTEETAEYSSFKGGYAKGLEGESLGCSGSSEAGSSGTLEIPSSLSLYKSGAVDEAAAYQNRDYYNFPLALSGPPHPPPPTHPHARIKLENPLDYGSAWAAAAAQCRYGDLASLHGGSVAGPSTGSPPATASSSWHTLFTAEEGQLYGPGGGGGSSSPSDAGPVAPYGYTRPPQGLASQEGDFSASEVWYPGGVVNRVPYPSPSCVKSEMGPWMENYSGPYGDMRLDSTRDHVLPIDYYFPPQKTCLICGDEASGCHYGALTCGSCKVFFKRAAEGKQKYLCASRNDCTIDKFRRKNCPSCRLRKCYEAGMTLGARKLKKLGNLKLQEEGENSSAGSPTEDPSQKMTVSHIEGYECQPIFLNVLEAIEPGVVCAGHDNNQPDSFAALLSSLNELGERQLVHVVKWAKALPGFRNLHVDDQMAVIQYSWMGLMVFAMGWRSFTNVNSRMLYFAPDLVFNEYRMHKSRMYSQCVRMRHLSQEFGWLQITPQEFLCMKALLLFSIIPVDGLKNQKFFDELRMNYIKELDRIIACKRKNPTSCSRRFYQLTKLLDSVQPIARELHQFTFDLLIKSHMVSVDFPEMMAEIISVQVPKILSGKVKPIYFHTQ
condition_description: 1 nM ^3 H-mibolerone, 20 hours at 0° C., rat ventral prostate cytosol; read-out: Inhibitory activity on mibolerone specific binding [IC50 (M)]
Measured IC50, listed per entry for reference.
property_measured: IC50

1) Cc1cccc(Cc2ccc(-c3cnn4c(O)ncnc34)cc2)c1 = 1.2e-07 M
2) Cc1cccc(Cc2ccc(-c3cnn4c(O)ccnc34)cc2)c1 = 8.2e-08 M
3) Oc1ncnc2c(-c3ccc(Cc4cccc(Cl)c4)cc3)cnn12 = 1.1e-07 M
4) COc1cc(-c2cnn3c(O)ncnc23)ccc1Cc1ccccc1 = 7.4e-08 M
5) Oc1ccnc2c(-c3ccc(Cc4ccccc4)cc3)cnn12 = 2.8e-07 M
6) CC(C)(c1ccccc1)c1ccc(-c2cnn3c(O)ccnc23)cc1 = 9e-08 M
7) COc1cccc(Cc2ccc(-c3cnn4c(O)ccnc34)cc2C)c1 = 1.3e-08 M
8) COc1cc(-c2cnn3c(O)ncnc23)ccc1Cc1ccccc1C = 6.2e-08 M
9) Oc1ncnc2c(-c3ccc(Cc4ccc(Cl)cc4)cc3)cnn12 = 9.3e-08 M
10) CCCC(c1ccccc1)c1ccc(-c2cnn3c(O)ncnc23)cc1 (centres unmarked) = 2e-07 M
11) CC(c1ccccc1)c1ccc(-c2cnn3c(O)ccnc23)cc1 (centres unmarked) = 2.8e-08 M
12) Cc1ccccc1Cc1ccc(-c2cnn3c(O)ncnc23)cc1 = 6.4e-07 M
13) COc1ccccc1Cc1ccc(-c2cnn3c(O)ncnc23)cc1 = 8.7e-07 M
14) COc1cccc(Cc2ccc(-c3cnn4c(O)ncnc34)cc2)c1 = 9.9e-08 M
15) COc1cccc(Cc2ccc(-c3cnn4c(O)ccnc34)cc2OC)c1 = 2.6e-08 M
16) COc1cccc(Cc2ccc(-c3cnn4c(O)ccnc34)cc2)c1 = 1.2e-07 M
17) Oc1ncnc2c(-c3ccc(Cc4ccccc4)c(Cl)c3)cnn12 = 4e-07 M
18) CC(c1ccccc1)c1ccc(-c2cnn3c(O)ncnc23)cc1 (centres unmarked) = 3.9e-08 M
19) COc1cccc(C(C)c2ccc(-c3cnn4c(O)ncnc34)cc2)c1 (centres unmarked) = 2.6e-08 M
20) COc1cc(-c2cnn3c(O)ncnc23)ccc1Cc1ccc(C)cc1 = 1.1e-07 M
